Values compiled from the supplement of paper PMC10567573.

B1: WEE1 (parent)
chain: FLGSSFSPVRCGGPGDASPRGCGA

Variants of: B1
Assay: protein stability index of a GFP-peptide fusion (GPS, HEK-293T) (PSI 1-6); higher = more stable;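 also: lentivirally expressed fusions sorted by FACS into six bins by GFP to DsRed ratio, PSI derived from sequencing read proportions per bin multiplied by bin number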
Conditions: c terminus: a fixed tail appended
Mark true (1) for reported protein stability index of 2 or greater; mark false (0) for anything smaller.

[[record]]
var = "G15T"
qualitative_label = "true (1)"

[[record]]
var = "S7F"
qualitative_label = "false (0)"

[[record]]
var = "G15Q"
qualitative_label = "false (0)"

[[record]]
var = "G12P"
qualitative_label = "true (1)"

[[record]]
var = "F1M"
qualitative_label = "true (1)"

[[record]]
var = "R10G"
qualitative_label = "false (0)"

[[record]]
var = "G3K"
qualitative_label = "true (1)"

[[record]]
var = "G23Y"
qualitative_label = "false (0)"

[[record]]
var = "F6M"
qualitative_label = "true (1)"

[[record]]
var = "A17K"
qualitative_label = "false (0)"

